Conditions: in n-propanol, 298.15 K
readout kind: solubility (mole fraction)
Lab note: record the figure alone, no unit after it.

Return solubility (mole fraction) (reported value) for this compound: NC(=O)c1nc(F)cnc1O 0.00197

----------
Settings: in acetone, 293.15 K
readout kind: solubility (mole fraction)

Supply reported solubility (mole fraction) belonging to this molecule: NC(=O)c1nc(F)cnc1O 0.00417

----------
Conditions: in methanol, 298.15 K
readout kind: solubility (mole fraction)

Using known records, supply solubility (mole fraction) for NC(=O)c1nc(F)cnc1O 0.00152

----------
Conditions: in methanol, 333.15 K
readout kind: solubility (mole fraction)
When you answer, write just the number.

Specify measured solubility (mole fraction) for NC(=O)c1nc(F)cnc1O . 0.00199

----------
Conditions: in n-butyl acetate, 328.15 K
readout kind: solubility (mole fraction)
Would you mind answering with just the numeric figure?

Give a short answer stating reported solubility (mole fraction) for NC(=O)c1nc(F)cnc1O . 0.00894

----------
Settings: in DMF, 298.15 K
readout kind: solubility (mole fraction)
# print the numeric value only

Entry NC(=O)c1nc(F)cnc1O needs its solubility (mole fraction) filled in; supply it. 0.0116

----------
Details: in isopropanol, 298.15 K
readout kind: solubility (mole fraction)
Lab note: record just the number, no unit beside it.

Specify solubility (mole fraction) for NC(=O)c1nc(F)cnc1O and stop. 0.00196

----------
Conditions: in ethanol, 313.15 K
readout kind: solubility (mole fraction)
Reply: number alone, nothing else.

Complete the entry with solubility (mole fraction) for NC(=O)c1nc(F)cnc1O 0.00318

----------
Settings: in methyl acetate, 313.15 K
readout kind: solubility (mole fraction)

Return value of solubility (mole fraction) for input NC(=O)c1nc(F)cnc1O , no commentary. 0.00521

----------
Conditions: in n-propanol, 323.15 K
readout kind: solubility (mole fraction)
Just the number, please, no unit after it.

Please give measured solubility (mole fraction) of the following entry: NC(=O)c1nc(F)cnc1O 0.00316

----------
Conditions: in methyl acetate, 308.15 K
readout kind: solubility (mole fraction)
The answer should be written as a number, with no unit following it.

Note down solubility (mole fraction) recorded for NC(=O)c1nc(F)cnc1O 0.00499

----------
Details: in dichloromethane, 323.15 K
readout kind: solubility (mole fraction)
API note: the answer field is a bare number with no unit suffix.

Report solubility (mole fraction) for NC(=O)c1nc(F)cnc1O 0.00398

----------
Details: in ethanol, 308.15 K
readout kind: solubility (mole fraction)
Write no unit; give the number alone.

Specify measured solubility (mole fraction) for NC(=O)c1nc(F)cnc1O . 0.00279

----------
Settings: in methyl acetate, 303.15 K
readout kind: solubility (mole fraction)

Identify solubility (mole fraction) associated with the compound NC(=O)c1nc(F)cnc1O 0.00464

----------
Conditions: in n-propanol, 308.15 K
readout kind: solubility (mole fraction)
Respond with the number and no other words.

State its solubility (mole fraction): NC(=O)c1nc(F)cnc1O 0.00258

----------
Conditions: in ethanol, 328.15 K
readout kind: solubility (mole fraction)

For the molecule NC(=O)c1nc(F)cnc1O , give its reported solubility (mole fraction). 0.00395

----------
Conditions: in ethyl acetate, 318.15 K
readout kind: solubility (mole fraction)
Would you mind answering with just the numeric figure?

Quote solubility (mole fraction) reported for NC(=O)c1nc(F)cnc1O please. 0.00525

----------
Conditions: in methyl acetate, 328.15 K
readout kind: solubility (mole fraction)
Could you keep your reply to the number by itself?

State its solubility (mole fraction) for this molecule: NC(=O)c1nc(F)cnc1O 0.00624
